System: RXF 393
ASSAY_EXPLANATION: NCI tumour cell line growth inhibition, 48 h
Active and inactive are the calls of the source. Cut-off read from the data, not from the text of the source: active = GI50 up to about 1.1 µM and inactive = higher.
Consider the following compounds; for each one, report its GI50.

stdin: Return value of GI50 for input "CC(=O)Nc1ccc2c(C(=O)O)c(C)c(O)nc2n1" , no commentary.
stdout: > 100 µM (inactive)

stdin: Return value of GI50 for input CC(C)C1=CC23CCC4C(C)(C(=O)O)CCCC4(C)C2CC1C(C(=O)O)C3C(=O)O (configuration not stated) , no commentary.
stdout: > 100 µM (inactive)

stdin: Return value of GI50 for input "CCOP(=O)(OCC)/C(=C/NC(=S)c1ccncc1)C(=O)OC" , no commentary.
stdout: > 100 µM (inactive)

stdin: Return value of GI50 for input Oc1ccc2c(c1)OCC1(O)Cc3cc(O)c(O)cc3C21 (configuration not stated) , no commentary.
stdout: 15.9 µM (inactive)

stdin: Return value of GI50 for input "COC(=O)c1ccccc1N(C(=O)c1ccccc1)c1ccccc1C" , no commentary.
stdout: 30.7 µM (inactive)

stdin: Return value of GI50 for input "CC(=O)c1csc2c1C(=O)c1scc(C(C)=O)c1C2=O" , no commentary.
stdout: 2.13 µM (inactive)

stdin: Return value of GI50 for input O=C1CSC(/C=C/c2ccccc2)N1c1nc2cc3sc(N4C(=O)CSC4/C=C/c4ccccc4)nc3cc2s1 (configuration not stated) , no commentary.
stdout: > 100 µM (inactive)

stdin: Return value of GI50 for input "CC(=O)NNc1nc(C)c(C(/C=C/c2ccccc2O)=N/N=C(N)N)s1" , no commentary.
stdout: > 100 µM (inactive)

stdin: Return value of GI50 for input CCOC(=O)C(NC(=O)c1ccccc1)(N1CCN(c2cc3c(cc2F)c(=O)c(C(=O)O)cn3C2CC2)CC1)C(F)(F)F (configuration not stated) , no commentary.
stdout: 19.5 µM (inactive)

stdin: Return value of GI50 for input CC1(C(=O)Nc2ccc3cc4ccccc4cc3c2)CC2(C)CC(C)(C1)C(O)NC2=O (configuration not stated) , no commentary.
stdout: > 100 µM (inactive)

stdin: Return value of GI50 for input "CCOP(=O)(OCC)/C(=C/c1ccccc1)CC(C)=O" , no commentary.
stdout: > 100 µM (inactive)

stdin: Return value of GI50 for input CC(=O)OC1CC2CCN3C(=O)c4cc5c(cc4[C@H](C1OC(C)=O)C23)OCO5 (some centres not stated) , no commentary.
stdout: > 100 µM (inactive)

====

Consider the following compounds; for each one, report its GI50.
System: XF498
ASSAY_EXPLANATION: NCI tumour cell line growth inhibition, 48 h
Active and inactive are the calls of the source. Cut-off read from the data, not from the text of the source: active = GI50 up to about 1.1 µM and inactive = higher.

stdin: Return value of GI50 for input "C=C(CN(C)C)C(=O)c1ccccc1C" , no commentary.
stdout: > 50.9 µM (inactive)

stdin: Return value of GI50 for input CCOC(=O)C12CCCC1(O)N(NC(N)=O)C(C)=C2C(=O)OC (configuration not stated) , no commentary.
stdout: > 100 µM (inactive)

stdin: Return value of GI50 for input "NC(=O)/N=C1/CCC2C3CCCC2C13" , no commentary.
stdout: > 100 µM (inactive)

stdin: Return value of GI50 for input "Cc1ccc(/N=N/C(C(=O)c2ccccc2)C(=O)c2ccccc2)cc1" , no commentary.
stdout: 20.1 µM (inactive)

stdin: Return value of GI50 for input Oc1ccc2c(c1)OCC1(O)Cc3cc(O)c(O)cc3C21 (configuration not stated) , no commentary.
stdout: 15.2 µM (inactive)

stdin: Return value of GI50 for input COc1ccc2[nH]cc(CCNC(=O)[C@](O)(Cc3cn(C)c4ccccc34)[C@@]3(O)OCC(O)C3O)c2c1 (some centres not stated) , no commentary.
stdout: 90.6 µM (inactive)

stdin: Return value of GI50 for input "CCn1c(C)nn2c(=O)c3ccccc3nc2c1=O" , no commentary.
stdout: > 100 µM (inactive)

stdin: Return value of GI50 for input "Cc1ccc(C(=O)O/N=C2/CCCC/C2=C\c2ccccc2)cc1" , no commentary.
stdout: 39.4 µM (inactive)

stdin: Return value of GI50 for input "CC(C)N1CC2CC(CN(C(=O)c3ccc(Cl)cc3)C2)C1" , no commentary.
stdout: > 100 µM (inactive)

stdin: Return value of GI50 for input "Cc1cc(C)c(-n2c(-c3ccccc3)cs/c2=N\N=C2C=C(C(C)(C)C)C(=O)C(C(C)(C)C)=C2)c(C)c1" , no commentary.
stdout: > 100 µM (inactive)

stdin: Return value of GI50 for input COc1ccccc1/C=C1\CCC(CCN(C)C)(C2=CCCC2)C1=O (configuration not stated) , no commentary.
stdout: 16.5 µM (inactive)

stdin: Return value of GI50 for input O=C1CCC(NC(=O)Cc2ccc(O)cc2)C(=O)N1 (configuration not stated) , no commentary.
stdout: > 2500 µM (inactive)

stdin: Return value of GI50 for input CN(C)c1ccc(C2CC(=O)C(C#N)=C(c3ccccc3)NN2C)cc1 (configuration not stated) , no commentary.
stdout: 4.55 µM (inactive)

stdin: Return value of GI50 for input OC1CCOc2ccccc21 (configuration not stated) , no commentary.
stdout: > 100 µM (inactive)

stdin: Return value of GI50 for input O=C(Nc1c(Cl)cc([N+](=O)[O-])cc1Cl)C(=O)C(C(=O)c1ccncc1)C1OC(=O)c2ccccc21 (configuration not stated) , no commentary.
stdout: > 100 µM (inactive)

stdin: Return value of GI50 for input "CCN(CC)c1ccc(/N=N/c2ccc(-c3nc4ccc[n+](C)c4o3)cc2)cc1" , no commentary.
stdout: 11.3 µM (inactive)

stdin: Return value of GI50 for input Cc1ccc([S+](c2ccccc2)c2cc(C)ccc2C)cc1.O=C(OC(C(=O)[O-])C(OC(=O)c1ccccc1)C(=O)O)c1ccccc1 (configuration not stated) , no commentary.
stdout: 3.75 µM (inactive)

====

Tested on: HCC 2998
ASSAY_EXPLANATION: NCI tumour cell line growth inhibition, 48 h
Calls of active or inactive are those of the source. Rule as the data show it: active = GI50 up to about 1.1 µM and inactive = higher.
Consider the following molecules; for each one, report its GI50.

stdin: Return value of GI50 for input "CCOC(=O)C1=C(N2CCCC2)NC(=O)CC1=O" , no commentary.
stdout: > 100 µM (inactive)

stdin: Return value of GI50 for input "O=c1[nH]c2[nH]c(-c3ccc(Br)cc3)cc2c2ccccc12" , no commentary.
stdout: > 100 µM (inactive)

stdin: Return value of GI50 for input CN1C(=O)C(C(=O)Nc2ccccn2)C2C[C@@]1(C)Oc1ccccc12 (stereo partly drawn) , no commentary.
stdout: > 100 µM (inactive)

====

Tested on: NCI-H23
ASSAY_EXPLANATION: NCI tumour cell line growth inhibition, 48 h
Calls of active or inactive are those of the source. Rule as the data show it: active = GI50 up to about 1.1 µM and inactive = higher. Square brackets hold non-standard residues; d marks the D form. Peptide text beside a SMILES is read from it. * marks the point of attachment. Boc = CC(C)(C)OC(=O)*; Lac = C[CH](O)C(=O)O; OBn = c1ccc(CO*)cc1
Thanks in advance; please answer with one of these: active, inactive

stdin: Please state the recorded outcome for this compound: "CC(C)c1ccc(O)c(Cc2cc(C(C)C)cc(Cc3cc(C(C)C)ccc3O)c2O)c1"
stdout: inactive

stdin: Please state the recorded outcome for this compound: CCOC(=O)c1c(-c2ccc(OC)cc2)c(C#N)c(=S)n(C2OC(COC(C)=O)C(OC(C)=O)C(OC(C)=O)C2OC(C)=O)c1-c1ccccc1 (centres undefined)
stdout: inactive

stdin: Please state the recorded outcome for this compound: COc1cccc2c1C1=CC(=O)CCC1C(C)(C)O2 (centres undefined)
stdout: inactive

stdin: Please state the recorded outcome for this compound: "Cc1c2cc[n+](C)cc2c(C)c2c1[nH]c1ccc(O)c(OCC(F)(F)F)c12"
stdout: active

stdin: Please state the recorded outcome for this compound: CC(CSc1nc2c(c(=N)n1-c1ccccc1)c(=S)n(-c1ccccc1)c(=S)n2-c1ccccc1)CN(C)C (centres undefined)
stdout: inactive

stdin: Please state the recorded outcome for this compound: "NNC(=O)CC(=O)Nc1ccccc1Cl"
stdout: inactive

stdin: Please state the recorded outcome for this compound: "O=c1c2cc(Cl)ccc2sc2cccc(Cl)c12"
stdout: inactive

stdin: Please state the recorded outcome for this compound: O=C1c2ccccc2C2(c3ccc(Cl)cc3)N[C@@H]3CCCC[C@@H]3N12 (some centres undefined)
stdout: inactive

stdin: Please state the recorded outcome for this compound: "Cc1cc(O)nc(CNC(=O)c2ccc3ccccc3c2)n1"
stdout: inactive

stdin: Please state the recorded outcome for this compound: "CCNc1c(C(=O)N(CC)CC)c(=O)[nH]c2ncccc12"
stdout: inactive

stdin: Please state the recorded outcome for this compound: C#CCCOC1(OC)N=NC(C)(C)O1 (centres undefined)
stdout: inactive

stdin: Please state the recorded outcome for this compound: "COCCOC(=O)NCn1cc(-c2ccccc2)nn1"
stdout: inactive

stdin: Please state the recorded outcome for this compound: COc1ccc(-c2[nH]c(=O)n(C3OC(CO)C(O)C(O)C3O)c(=O)c2C#N)cc1 (centres undefined)
stdout: inactive

stdin: Please state the recorded outcome for this compound: CC(OC(=O)C(Cc1ccccc1)NC(=O)C(Cc1ccccc1)NC(=O)OC(C)(C)C)C(=O)OCc1ccccc1 (stereo not drawn) (Boc-Phe-Phe-[Lac]-OBn; configuration not given here)
stdout: inactive

The measurements presented in this section are drawn from ChEMBL document CHEMBL1201862.
